# Test system: Escherichia coli
# ASSAY TEXT: Antibacterial activity against Escherichia coli ATCC 25922 (CO-ADD:GN_001); MIC in CAMBH media using NBS plates, by OD(600)
# CONDITIONS USED: Concentration 32.0 ug.mL-1

STRUCTURE STRING | inhibition
NC(=O)c1nc([N+](=O)[O-])cn1Cc1ccc(F)cc1 | Average; N=2
O=C(NCc1ccccn1)c1ncc([N+](=O)[O-])[nH]1 | Average; N=2
CNC(=O)c1ncc([N+](=O)[O-])[nH]1 | Average; N=2

* * *

# Tested on: Acinetobacter baumannii
# ASSAY TEXT: Antibacterial activity against Acinetobacter baumannii ATCC 19606 (CO-ADD:GN_034); MIC in CAMBH media using NBS plates, by OD600
# CONDITIONS USED: Concentration 32.0 ug.mL-1
EXPERIMENTAL READOUT: inhibition

Known inhibition results, listed for orientation:
MOLECULE | inhibition
NC(=O)c1nc([N+](=O)[O-])cn1Cc1cccc(OC(F)(F)F)c1 | Average; N=2
O=C(NCc1ccccn1)c1ncc([N+](=O)[O-])[nH]1 | Average; N=2
[N-]=[N+]=NCCOc1nc(-c2ccccc2)cn2cc([N+](=O)[O-])nc12 | Average; N=2
CN(C)C(=O)c1ncc([N+](=O)[O-])[nH]1 | Average; N=2
NC(=O)c1nc([N+](=O)[O-])cn1Cc1ccc(C(F)(F)F)cc1 | Average; N=2

Parameters: items (list). Returns: inhibition for each item.
1. O=C(NC1CCCCC1)c1ncc([N+](=O)[O-])[nH]1
2. CC(=O)OCCn1cc([N+](=O)[O-])nc1C(N)=O
3. CC(NC(=O)c1ncc([N+](=O)[O-])[nH]1)c1ccc(F)cc1 (stereo unspecified)
4. O=C(c1ncc([N+](=O)[O-])[nH]1)N1CCOCC1
5. CNC(=O)c1ncc([N+](=O)[O-])[nH]1

1. Average; N=2
2. Average; N=2
3. Average; N=2
4. Average; N=2
5. Average; N=2

Fill in the blank: the reported inhibition of O=C(NCCO)c1ncc([N+](=O)[O-])[nH]1 is ____.
Average; N=2

* * *

# Test system: Staphylococcus aureus
# ASSAY TEXT: Antibacterial activity against Staphylococcus aureus MRSA ATCC 43300 (CO-ADD:GP_020); MIC in CAMBH media, using NBS plates, by OD(600)
# CONDITIONS USED: Concentration 32.0 ug.mL-1
EXPERIMENTAL READOUT: inhibition

Known inhibition results, listed for orientation:
MOLECULE | TESTED SYSTEM | inhibition
O=C(NCc1ccc(OC(F)(F)F)cc1)c1ncc([N+](=O)[O-])[nH]1 | Staphylococcus aureus | Average; N=2
NC(=O)c1nc([N+](=O)[O-])cn1CCc1ccc(OC(F)(F)F)cc1 | Staphylococcus aureus | Average; N=2
[N-]=[N+]=NCCOc1nc(-c2ccccc2)cn2cc([N+](=O)[O-])nc12 | Staphylococcus aureus | Average; N=2
O=C(NCCO)c1ncc([N+](=O)[O-])[nH]1 | Staphylococcus aureus | Average; N=2
NC(=O)c1nc([N+](=O)[O-])cn1Cc1ccccn1 | Staphylococcus aureus | Average; N=2

Parameters: items (list). Returns: inhibition for each item.
1. CC(NC(=O)c1ncc([N+](=O)[O-])[nH]1)c1ccc(F)cc1 (stereo unspecified)
2. O=C(NCc1ccccn1)c1ncc([N+](=O)[O-])[nH]1
3. O=C(c1ncc([N+](=O)[O-])[nH]1)N1CCCC1
4. NC(=O)c1nc([N+](=O)[O-])cn1CC1CCCCC1
5. O=C(NC1CCCCC1)c1ncc([N+](=O)[O-])[nH]1
6. O=C(c1ncc([N+](=O)[O-])[nH]1)N1CCOCC1

Average; N=2
Average; N=2
Average; N=2
Average; N=2
Average; N=2
Average; N=2
